Here, each record is paired with measured composite z-score data.
assay: small-molecule binders of probe aNOTCH3, primary screen, biochemical, small-molecule microarray, 635/667 nm fluorescence (AID 1120); settings: higher = more signal;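 note: probe is a biotin-tagged antibody raised against NOTCH3 rather than NOTCH3 protein; score merges spot fluorescence near 667 nm with spot signal to noise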
Write the value as a bare number.

The cases that follow already have their composite z-score on record.
molecule	composite z-score
CO[C@H]1COC(=O)CCC[C@H](C)[C@@H](OC)COC(=O)CC=C[C@@H]1C	-0.136
CC(C)(C)N1C(=O)[C@H]2[C@@H]3C(=CC[C@H]2C1=O)C(=O)[C@H]1O[C@H]1[C@H]3O	-0.0976

Lab note: measured composite z-score of CC(C)=CCCC(C)=CCON=C1C[C@@H](O)[C@@H](O)[C@@H]2[C@@H]3C(=O)N(Cc4ccc5c(c4)OCO5)C(=O)[C@@H]3CC[C@@H]12 was 0.0827

Lab note: measured composite z-score of CC(C)CON=C1C[C@@H](O)[C@@H](O)[C@@H]2[C@@H]3C(=O)N(c4ccc(F)cc4F)C(=O)[C@@H]3CC[C@@H]12 was -0.095

Lab note: measured composite z-score of Cc1cc2c(nc1C)CCCCN2CC(O)CN1CCCc2nc(-c3ccc(Br)cc3)ccc21 (stereo unspecified) was 0.298

Lab note: measured composite z-score of CCOC(=O)NN=C1C[C@@H](O)[C@@H](O)[C@@H]2[C@@H]3C(=O)N(C[C@@H]4CCCO4)C(=O)[C@@H]3CC[C@H]12 was -0.0057

----------
target: Follistatin (Homo sapiens) (UniProt P19883); assay: follistatin binders on small-molecule microarrays, primary screen, biochemical, small-molecule microarray, 635/667 nm fluorescence (AID 1132); settings: FST binding, 635 nm fluorescence, higher = more signal
Sequence (P19883 whole entry, looked up): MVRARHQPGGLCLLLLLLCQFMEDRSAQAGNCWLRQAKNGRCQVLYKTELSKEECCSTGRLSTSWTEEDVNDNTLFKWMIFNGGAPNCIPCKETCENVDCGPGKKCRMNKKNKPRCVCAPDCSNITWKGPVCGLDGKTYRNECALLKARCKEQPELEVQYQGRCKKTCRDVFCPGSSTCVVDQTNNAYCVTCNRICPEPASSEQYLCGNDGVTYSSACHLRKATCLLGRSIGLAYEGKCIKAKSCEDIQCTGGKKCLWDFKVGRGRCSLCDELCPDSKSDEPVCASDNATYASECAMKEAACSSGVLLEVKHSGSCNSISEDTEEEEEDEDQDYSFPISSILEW
Here, each record is paired with measured composite z-score data.
Write the value as a bare number.

compound	composite z-score
C[C@H]1CC[C@H]2C(=O)OC(COc3ccc(C(C)(C)C)cc3)CN2[C@@H]1c1ccc(Br)cc1 (stereo partly specified)	0.312
O=C1C=C[C@@H](O)[C@@H]2[C@@H]3C(=O)N(Cc4ccccc4)C(=O)[C@@H]3CC[C@@H]12	0.415
CCOC(=O)[C@H](Cc1ccccc1)NC(=O)CCC1CC(OC(=O)NCc2cccc3ccccc23)CC2(CCCC(COC(=O)NCCc3ccccc3OC)O2)O1 (stereo partly specified)	0.798
COC(=O)[C@H](C)NC(=O)CCC1CC(OC(=O)NCc2cccc3ccccc23)CC2(CCCC(COC(=O)NCCOc3ccccc3)O2)O1 (stereo partly specified)	0.145
O=C1[C@H]2[C@H]3[C@H](O)[C@H](O)CC(=NO[C@@H]4O[C@H](CO)[C@@H](O)[C@H](O)[C@H]4O)[C@H]3CC[C@H]2C(=O)N1C[C@@H]1CCCO1	-0.438
O=C1C[C@@H](O)[C@@H](O)[C@@H]2[C@@H]3C(=O)N(Cc4ccccc4)C(=O)[C@@H]3CC[C@H]12	0.967
CSCC[C@@H]1NC(=O)CC=C[C@@H](C)COC(=O)[C@H](C)COC1=O	1.45
CO[C@@H]1COC(=O)[C@H](CCSC)NC(=O)CC=C[C@@H](C)COC(=O)[C@@H]2CCCN2C(=O)CC=C[C@H]1C	0.779

Lab note: measured composite z-score of CCCCOC(OCCCC)C(O)CSc1ccc2ccccc2c1 (stereo unspecified) was 0.586

Lab note: measured composite z-score of CC(CCN1CCc2nc(-c3ccccc3)c(-c3ccccc3)cc2C1)=NOC(C)CN1CCCc2nc(C)c(C)cc21 (stereo unspecified) was 0.94

Lab note: measured composite z-score of COc1ccc(OC[C@@H]2CC3[C@@H](c4ccc(Br)cc4)[C@H](C)CC[C@H]3C(=O)O2)cc1 (stereo partly specified) was 0.57

----------
Here, each record is paired with measured composite z-score data.
target: Torsin-1A (Homo sapiens); experiment: small-molecule binders of mutant TOR1A in lysate, primary screen, cell lysate, small-molecule microarray, COS7 lysate, 635/667 nm fluorescence (AID 1150); settings: COS7 hTOR1A mutant lysate, 635 nm fluorescence, higher = more signal;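 note: score pools 667 nm emission and signal to noise measuring lysate protein binding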
Write the value as a bare number.

The cases that follow already have their composite z-score on record.
molecule	resultValue
CCOC(=O)CCN1C(=O)[C@H]2[C@H]3[C@H](O)[C@H](O)CC(=O)[C@@H]3CC[C@H]2C1=O	0.5
COC(=O)[C@@H]1CC[C@H](C)[C@@H](c2ccc(C)cc2)N1C(=O)c1ccc(C=NO[C@@H](C)c2cc(-c3c(C)cc(C)cc3C)no2)cc1	0.763
O=C1[C@H]2[C@H]3[C@H](O)[C@H](O)CC(=NO[C@@H]4O[C@H](CO)[C@@H](O)[C@H](O)[C@H]4O)[C@@H]3CC[C@H]2C(=O)N1C1CCCCC1	0.0159

Lab note: measured composite z-score of COc1ccc(COC(=O)NN=C2C[C@@H](O)[C@@H](O)[C@@H]3[C@@H]4C(=O)N([C@@H](C)c5ccccc5)C(=O)[C@@H]4CC[C@H]23)cc1 was 0.106

Lab note: measured composite z-score of COC(=O)[C@H](C)NC(=O)CCC1CC(OC(=O)NCc2ccc3c(c2)OCO3)CC2(CCCC(COC(=O)NCCc3ccc(Cl)cc3)O2)O1 (some centres undefined) was 0.193

Lab note: measured composite z-score of CCCNC(=O)OC[C@H]1O[C@H](CCON=C2C[C@@H](O)[C@@H](O)[C@@H]3[C@@H]4C(=O)N(CC)C(=O)[C@@H]4CC[C@@H]23)C=C[C@@H]1Oc1ccc(OC)cc1 was 0.43

Lab note: measured composite z-score of CC(C)[C@@H](OCc1ccccc1)[C@H](C)C=NO[C@H](C)c1cn([C@@H]2COC[C@H]2O)nn1 was 1.56

Lab note: measured composite z-score of O=C1C[C@@H](O)[C@@H](O)[C@@H]2[C@@H]3C(=O)N(Cc4ccccc4)C(=O)[C@@H]3CC[C@H]12 was 0.37

Lab note: measured composite z-score of COC(=O)CC=C[C@@H](C)[C@@H](C=NOC(C)CN1CCCCc2nc(C)c(C)cc21)NS(=O)(=O)c1ccc(C)cc1 (some centres undefined) was 0.705

Lab note: measured composite z-score of COc1cccc([C@H](O)Cn2cc(-c3ccc(CON=C(C)C)cc3)nn2)c1 was 0.271

Lab note: measured composite z-score of CC(CCN1CCCc2nc(C)c(C)cc21)=NOC[C@@H](O)COCc1ccco1 was 4.29

Lab note: measured composite z-score of COCCNC(=O)OCC1CCCC2(CC(OC(=O)NCc3cccc4ccccc34)CC(CCC(=O)N[C@@H](C)C(=O)OC)O2)O1 (some centres undefined) was 0.41

Lab note: measured composite z-score of CC(C)[C@@H](OCc1ccccc1)[C@H](C)C=NOC[C@@H](O)[C@H]1O[C@@H]2OC(C)(C)O[C@@H]2[C@H]1O was 0.284

Lab note: measured composite z-score of CCOC(=O)[C@H](CC(C)C)NC(=O)CCC1CC(OC(=O)NCc2ccc3c(c2)OCO3)CC2(CCCC(COC(=O)NCc3ccccc3)O2)O1 (some centres undefined) was 0.245

Lab note: measured composite z-score of CC(C)[C@H](NC(=O)OC(C)(C)C)[C@@H](O)CC(=O)C(C)(C)C was 0.0647

Lab note: measured composite z-score of COC(OC)[C@@H](C)[C@H](OC)[C@@H](C)[C@H](OC)c1ccccc1 was -0.252

Lab note: measured composite z-score of COC(=O)[C@@H]1CC[C@H](C)[C@@H](c2ccc(C)cc2)N1C(=O)c1ccc(C=NOC[C@@H](O)[C@H]2O[C@@H]3OC(C)(C)O[C@@H]3[C@H]2O)cc1 was 0.277

----------
assay: small-molecule microarray binders of probe aNog, primary screen, biochemical, biotinylated probe, 635/667 nm fluorescence (AID 1115); conditions: higher = more signal;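 note: probe is biotinylated aNog protein used at 0.15 µg/mL for 1 h at 4 C; z-score combines 667 nm fluorescence of each spot with its signal to noise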
Record T whenever composite z-score is at 0.1 or higher; record F when lower.

Answered examples (10):
compound	className
O=C1C=C[C@@H](O)[C@@H]2[C@@H]3C(=O)N(c4cccc(Oc5ccccc5)c4)C(=O)[C@@H]3CC[C@@H]12	F
COC(OC)[C@@H](C)[C@H](OC)[C@@H](C)[C@H](OC)c1ccccc1	T
CCN1C(=O)[C@H]2[C@H]3[C@H](O)[C@H](O)CC(=NOCC=C(C)CCC=C(C)C)[C@@H]3CC[C@H]2C1=O	F
COC(=O)[C@H](C)NC(=O)CCC1CC(OC(=O)NCc2ccc3c(c2)OCO3)CC2(CCCC(COC(=O)NCc3ccccc3)O2)O1 (stereo not given in full)	F
CON=C(C)CCC(=O)OC[C@H]1O[C@H](C#Cc2ccccc2)C=C[C@@H]1Oc1ccc(C)cc1	F
CC(CCC(=O)OC[C@H]1O[C@H](C#Cc2ccccc2)C=C[C@@H]1Oc1ccc(C)cc1)=NOC(C)CN1CCCc2nc(C)c(C)cc21 (stereo not given in full)	T
CCOC(=O)[C@H](Cc1ccccc1)NC(=O)CCC1CC(OC(=O)NCc2ccc3c(c2)OCO3)CC2(CCCC(COC(=O)NCCOC)O2)O1 (stereo not given in full)	F
CC(=O)OC[C@H]1O[C@@H](ON=C(C)C)[C@H](OC(C)=O)[C@@H](OC(C)=O)[C@@H]1OC(C)=O	F
CON=C(C)CCN1CCc2nc(-c3ccccc3)c(-c3ccccc3)cc2C1	T
O=C1C2=CC[C@H]3C(=O)N(c4ccc(F)cc4F)C(=O)[C@H]3[C@H]2[C@H](O)[C@@H]2O[C@H]12	F

QUERY: Can CCOC(=O)[C@H](Cc1ccccc1)NC(=O)CCC1CC(OC(=O)NCCc2ccc(F)cc2)CC2(CCCC(COC(=O)NCCOc3ccccc3)O2)O1 (stereo not given in full) be said to have composite z-score at or above 0.1?
RESULT: F

The values you see were collected from PubChem BioAssay.
